experiment: Henry solubility constant Hcp at 298.15 K (mol/(m3 Pa)); details: reference: Brunner et al. (1990)
Quick list: Henry solubility constant Hcp per entry.

{"SMILES_REPRESENTATION": "Clc1ccc(Cl)c(-c2ccccc2Cl)c1", "Henry solubility constant Hcp": 0.039}
{"SMILES_REPRESENTATION": "Clc1cc(Cl)c(-c2c(Cl)cccc2Cl)cc1Cl", "Henry solubility constant Hcp": 0.11}
{"SMILES_REPRESENTATION": "Clc1ccc(-c2c(Cl)c(Cl)cc(Cl)c2Cl)c(Cl)c1", "Henry solubility constant Hcp": 0.19}
{"SMILES_REPRESENTATION": "Clc1cc(Cl)c(-c2cc(Cl)c(Cl)cc2Cl)cc1Cl", "Henry solubility constant Hcp": 0.43}

---

test: Henry solubility constant Hcp at 298.15 K (mol/(m3 Pa)); conditions: reference: Brunner et al. (1990)
Quick list: Henry solubility constant Hcp per entry.
MEASURED_PARAMETER: Henry solubility constant Hcp

{"SMILES_REPRESENTATION": "Clc1ccc(-c2ccc(Cl)c(Cl)c2)cc1", "QUANTITATIVE_READOUT": 0.099}
{"SMILES_REPRESENTATION": "Clc1cc(-c2c(Cl)ccc(Cl)c2Cl)c(Cl)c(Cl)c1Cl", "QUANTITATIVE_READOUT": 0.7}
{"SMILES_REPRESENTATION": "Clc1cc(Cl)c(-c2ccc(Cl)c(Cl)c2Cl)cc1Cl", "QUANTITATIVE_READOUT": 0.47}
{"SMILES_REPRESENTATION": "Clc1cccc(-c2ccccc2Cl)c1", "QUANTITATIVE_READOUT": 0.039}
{"SMILES_REPRESENTATION": "Clc1ccc(Cl)c(-c2c(Cl)ccc(Cl)c2Cl)c1Cl", "QUANTITATIVE_READOUT": 0.11}
{"SMILES_REPRESENTATION": "Clc1cccc(Cl)c1-c1c(Cl)cccc1Cl", "QUANTITATIVE_READOUT": 0.049}
{"SMILES_REPRESENTATION": "Clc1ccc(-c2cc(Cl)c(Cl)cc2Cl)c(Cl)c1", "QUANTITATIVE_READOUT": 0.13}
{"SMILES_REPRESENTATION": "Clc1cc(Cl)cc(-c2c(Cl)c(Cl)cc(Cl)c2Cl)c1", "QUANTITATIVE_READOUT": 0.34}
{"SMILES_REPRESENTATION": "Clc1cccc(-c2cccc(Cl)c2Cl)c1Cl", "QUANTITATIVE_READOUT": 0.099}
{"SMILES_REPRESENTATION": "Clc1ccc(Cl)c(-c2ccc(Cl)c(Cl)c2)c1", "QUANTITATIVE_READOUT": 0.099}
{"SMILES_REPRESENTATION": "Clc1cc(Cl)c(Cl)c(-c2cc(Cl)c(Cl)cc2Cl)c1", "QUANTITATIVE_READOUT": 0.39}
{"SMILES_REPRESENTATION": "Clc1cc(Cl)c(-c2cccc(Cl)c2Cl)cc1Cl", "QUANTITATIVE_READOUT": 0.13}
{"SMILES_REPRESENTATION": "Clc1cc(-c2cc(Cl)c(Cl)c(Cl)c2Cl)c(Cl)c(Cl)c1Cl", "QUANTITATIVE_READOUT": 0.99}
{"SMILES_REPRESENTATION": "Clc1cc(Cl)cc(-c2cc(Cl)c(Cl)c(Cl)c2Cl)c1", "QUANTITATIVE_READOUT": 0.49}
{"SMILES_REPRESENTATION": "Clc1ccc(-c2ccc(Cl)c(Cl)c2Cl)c(Cl)c1", "QUANTITATIVE_READOUT": 0.15}

---

experiment: Henry solubility constant Hcp at 298.15 K (mol/(m3 Pa)); settings: reference: Brunner et al. (1990)
Quick list: Henry solubility constant Hcp per entry.

{"COMPOUND": "Clc1cc(-c2c(Cl)c(Cl)cc(Cl)c2Cl)c(Cl)c(Cl)c1Cl [2,2',3,3',4,5,5',6'-octachlorobiphenyl]", "Henry solubility constant Hcp": 0.99}
{"COMPOUND": "Clc1cc(-c2c(Cl)cc(Cl)c(Cl)c2Cl)c(Cl)c(Cl)c1Cl [2,2',3,3',4,4',5,6'-octachlorobiphenyl]", "Henry solubility constant Hcp": 0.99}
{"COMPOUND": "Clc1ccc(Cl)c(-c2c(Cl)c(Cl)cc(Cl)c2Cl)c1Cl [2,2',3,3',5,6,6'-heptachlorobiphenyl]", "Henry solubility constant Hcp": 0.41}

---

assay: Henry solubility constant Hcp at 298.15 K (mol/(m3 Pa)); conditions: reference: Brunner et al. (1990)
Use 0.2 as the dividing line for Henry solubility constant Hcp, with the line itself on the rule met side and lower values as rule not met.

{"MOLECULE": "Clc1cc(Cl)c(-c2ccccc2)c(Cl)c1Cl [2,3,4,6-tetrachlorobiphenyl]", "GROUP_LABEL": "rule not met"}
{"MOLECULE": "Clc1ccc(-c2cc(Cl)ccc2Cl)cc1 [2,4',5-trichlorobiphenyl]", "GROUP_LABEL": "rule not met"}
{"MOLECULE": "Clc1cccc(-c2cc(Cl)c(Cl)cc2Cl)c1 [2,3',4,5-tetrachlorobiphenyl]", "GROUP_LABEL": "rule not met"}
{"MOLECULE": "Clc1cccc(-c2cc(Cl)c(Cl)c(Cl)c2Cl)c1Cl [2,2',3,3',4,5-hexachlorobiphenyl]", "GROUP_LABEL": "rule met"}
{"MOLECULE": "Clc1ccc(-c2ccccc2)cc1Cl [3,4-dichlorobiphenyl]", "GROUP_LABEL": "rule not met"}
{"MOLECULE": "Clc1ccc(Cl)c(-c2cc(Cl)ccc2Cl)c1 [2,2',5,5'-tetrachlorobiphenyl]", "GROUP_LABEL": "rule not met"}
{"MOLECULE": "Clc1ccc(Cl)c(-c2cc(Cl)c(Cl)c(Cl)c2Cl)c1 [2,2',3,4,5,5'-hexachlorobiphenyl]", "GROUP_LABEL": "rule met"}
{"MOLECULE": "Clc1cc(Cl)c(-c2c(Cl)c(Cl)cc(Cl)c2Cl)c(Cl)c1Cl [2,2',3,3',4,5',6,6'-octachlorobiphenyl]", "GROUP_LABEL": "rule met"}
{"MOLECULE": "Clc1cccc(-c2c(Cl)c(Cl)c(Cl)c(Cl)c2Cl)c1 [2,3,3',4,5,6-hexachlorobiphenyl]", "GROUP_LABEL": "rule met"}
{"MOLECULE": "Clc1cc(Cl)c(Cl)c(-c2c(Cl)c(Cl)cc(Cl)c2Cl)c1Cl [2,2',3,3',5,5',6,6'-octachlorobiphenyl]", "GROUP_LABEL": "rule met"}
{"MOLECULE": "Clc1ccccc1-c1c(Cl)cccc1Cl [2,2',6-trichlorobiphenyl]", "GROUP_LABEL": "rule not met"}
{"MOLECULE": "Clc1ccc(Cl)c(-c2ccccc2)c1Cl [2,3,6-trichlorobiphenyl]", "GROUP_LABEL": "rule not met"}
{"MOLECULE": "Clc1cccc(-c2cc(Cl)cc(Cl)c2)c1 [3,3',5-trichlorobiphenyl]", "GROUP_LABEL": "rule not met"}
{"MOLECULE": "Clc1cccc(-c2c(Cl)c(Cl)c(Cl)c(Cl)c2Cl)c1Cl [2,2',3,3',4,5,6-heptachlorobiphenyl]", "GROUP_LABEL": "rule met"}
{"MOLECULE": "Clc1cc(Cl)c(Cl)c(-c2ccc(Cl)c(Cl)c2Cl)c1 [2,2',3,3',4,5'-hexachlorobiphenyl]", "GROUP_LABEL": "rule met"}
{"MOLECULE": "Clc1cc(Cl)c(Cl)c(-c2c(Cl)ccc(Cl)c2Cl)c1 [2,2',3,3',5,6'-hexachlorobiphenyl]", "GROUP_LABEL": "rule not met"}
